biological target: Neuronal acetylcholine receptor; experiment: Ability to displace radioligand [3H](-)-cytisine from Nicotinic acetylcholine receptor in rat brain membrane.
READOUT LABEL: pKi
# pKi = -log10(concentration in molar units)

>>> endpoint_result("C[C@@H](N)COc1ccc(F)nc1")
8.18
>>> endpoint_result("CC[C@@H](COc1ccc(F)nc1)NC")
6.66
>>> endpoint_result("C[C@H](N)COc1cnc(Cl)c(/C=C/c2ccncc2)c1")
10.12
>>> endpoint_result("C[C@@H](N)COc1ccc(Cl)nc1")
8.28
>>> endpoint_result("Cc1cc(OC[C@@H](C)N)cnc1Cl")
9.01

pKi reported for this molecule C[C@H](N)COc1cnc(Cl)c(Br)c1 : 8.82

pKi reported for this molecule Cc1cc(OC[C@H](C)N(C)C)cnc1Cl : 8.02

pKi reported for this molecule CN[C@H](COc1cnc(Cl)c(/C=C/c2ccncc2)c1)Cc1ccccc1 : 8.59

pKi reported for this molecule CN(C)CCOc1cncc([N+](=O)[O-])c1 : 6.59

pKi reported for this molecule CN[C@H](C)COc1ccc(F)nc1 : 7.96

pKi reported for this molecule C[C@H](COc1cnc(Cl)c(Br)c1)N(C)C : 7.92

pKi reported for this molecule N[C@H](COc1cnc(Cl)c(/C=C/c2ccncc2)c1)Cc1ccccc1 : 8.00

pKi reported for this molecule CN[C@@H](C)COc1cnc(Cl)c(C)c1 : 8.26

pKi reported for this molecule CN(C)CCOc1ccc(Cl)nc1 : 7.10

pKi reported for this molecule CN(C)CCOc1cncc(Br)c1 : 7.30

====

test: Ability to displace radioligand [3H](-)-cytisine from Neuronal nicotinic receptor in rat brain membrane was determined.; type: cell membranes
READOUT LABEL: Ki (nM)
Please reply with the bare figure in nM and do not write the unit itself.

Ki reported for this molecule Clc1ccc(OC[C@H]2CCN2)cn1 : 0.05

====

target: Neuronal acetylcholine receptor; assay: Ability to displace radioligand [3H](-)-cytisine from Nicotinic acetylcholine receptor in rat brain membrane.
# pKi per entry
# pKi = -log10(concentration in molar units)

Here is how some compounds turned out for pKi.
>>> endpoint_result("CN(C)[C@H](COc1cnc(Cl)c(Br)c1)Cc1ccccc1")
6.49
>>> endpoint_result("C[C@@H](COc1cnc(Cl)c(Br)c1)N(C)C")
7.51
>>> endpoint_result("CNCCOc1cncc([N+](=O)[O-])c1")
6.25
>>> endpoint_result("C[C@@H](COc1cnc(Cl)c(/C=C/c2ccncc2)c1)N(C)C")
9.43
>>> endpoint_result("C[C@@H](N)COc1cnc(Cl)c(/C=C/c2ccncc2)c1")
10.09

pKi reported for this compound CC[C@H](N)COc1ccc(F)nc1 : 7.41

pKi reported for this compound CN[C@@H](C)COc1ccc(F)nc1 : 7.16

pKi reported for this compound CN[C@@H](C)COc1cnc(Cl)c(Br)c1 : 7.96

pKi reported for this compound CNCCOc1ccc(OC)nc1 : 6.21

pKi reported for this compound C[C@H](N)COc1ccc(Cl)nc1 : 8.35

pKi reported for this compound Cc1cc(OC[C@@H](C)N(C)C)cnc1Cl : 8.14

pKi reported for this compound NCCOc1cncc(Cl)c1 : 6.85

pKi reported for this compound CN[C@H](C)COc1cnc(Cl)c(C)c1 : 9.24

pKi reported for this compound N[C@H](COc1cnc(Cl)c(Br)c1)Cc1ccccc1 : 7.00

====

# Ki per entry
target: Neuronal acetylcholine receptor; experiment: Ability to displace radioligand [3H](-)-cytisine from Nicotinic acetylcholine receptor in rat brain membrane.
Please reply with the bare figure in nM and do not write the unit itself.

>>> endpoint_result("CNCCOc1cncc(Cl)c1")
37
>>> endpoint_result("C[C@@H](COc1ccc(F)nc1)N(C)C")
100
>>> endpoint_result("Cc1ccc(OCCN(C)C)cn1")
140
>>> endpoint_result("COc1ccc(OCCN(C)C)cn1")
406
>>> endpoint_result("CN(C)CCOc1cnc(Cl)c(Br)c1")
7.1
>>> endpoint_result("CNCCOc1ccc(C)nc1")
43
>>> endpoint_result("CN(C)[C@@H](CCCl)COc1cncc(C(F)(F)F)c1")
5.5

Ki reported for this molecule CNCCOc1cnc(Cl)c(Br)c1 : 14.3

====

biological target: Neuronal acetylcholine receptor; experiment: Ability to displace radioligand [3H](-)-cytisine from Nicotinic acetylcholine receptor in rat brain membrane.
pKi: −log10 of the molar value.
Label T when pKi >= 8; otherwise F.

# example entries with known answers
>>> category_label("CN[C@@H](C)COc1ccc(Cl)nc1")
"F"
>>> category_label("C[C@H](COc1ccc(F)nc1)N(C)C")
"F"

Does pKi meet or surpass 8 for CN[C@H](C)COc1cnc(Cl)c(Br)c1 ? T

Does pKi meet or surpass 8 for CN[C@H](C)COc1cnc(Cl)c(/C=C/c2ccncc2)c1 ? T

Does pKi meet or surpass 8 for Cc1cc(OC[C@H](C)N)cnc1Cl ? T

Does pKi meet or surpass 8 for CN(C)CCOc1cncc(Cl)c1 ? F

Does pKi meet or surpass 8 for C[C@H](COc1cnc(Cl)c(/C=C/c2ccncc2)c1)N(C)C ? T

Does pKi meet or surpass 8 for CN[C@H](COc1cccnc1)Cc1ccccc1 ? F

Does pKi meet or surpass 8 for CC[C@@H](COc1cnc(Cl)c(/C=C/c2ccncc2)c1)N(C)C ? T

Does pKi meet or surpass 8 for C[C@@H](N)COc1cnc(Cl)c(Br)c1 ? T

====

target: Neuronal acetylcholine receptor; assay: Ability to displace radioligand [3H](-)-cytisine from Nicotinic acetylcholine receptor in rat brain membrane.
READOUT LABEL: Ki

>>> endpoint_result("CC[C@H](N)COc1ccc(Cl)nc1")
"15 nM"
>>> endpoint_result("C[C@H](N)COc1ccc(F)nc1")
"8.7 nM"

# evaluate next
// Ki (Neuronal acetylcholine receptor) for CN[C@H](C)COc1ccc(Cl)nc1 = 5.9 nM
